These data points were gathered from ChEMBL document CHEMBL3885861.

- Organism: Rattus norvegicus
- PROTOCOL_NOTES: Open TG-GATES - Regimen: Daily Repeat
- Format: toxicity, organism-based, Sprague-Dawley
- Design: regimen Daily Repeat, gender Male, age 6 weeks
- CONDITION_SET: in vivo, po, 0 mg/kg, […], tissue Plasma, route gavage, dose level Control, time 7 day
Each entry below lists one item and its recorded Na value.
Answer with the number, then the unit.

These recorded examples may help you get a feel for the data.
NC1=NC(=O)C(c2ccccc2)O1 (stereo not given); 142 meq/L
CN/C(=N/CCSCc1nc[nH]c1C)NC#N; 141.2 meq/L
CC(C)NNC(=O)c1ccncc1; 141.2 meq/L
CN(C)CCC(c1ccc(Cl)cc1)c1ccccn1 (stereo not given); 143.2 meq/L

Consider the additional compound presented here.
Task item: Give Na for the following compound: `Brc1ccccc1`
Reply: 143.8 meq/L
